- EXPERIMENTAL_TARGET: Cyclin-dependent kinase 1/cyclin B1 (Homo sapiens)
- ASSAY_METHOD_TEXT: Inhibition of recombinant human N-terminal GST/His6-tagged CDK1 (M1 to M297 residues)/CyclinB1 (M1 to V433 residues) expressed in Sf9 insect cells using RBCTF as substrate measured after 1 hr by ADP-glo luminescence assay
ENDPOINT_LABEL: IC50

Check out these entries, answers already filled in.
>>> result("O=C(COc1ccc(-c2nc3ccccc3c(=O)[nH]2)cc1)Nc1cccc(Cl)c1")
"> 50 µM"
>>> result("COc1ccccc1NC(=O)COc1ccc(-c2nc3ccccc3c(=O)[nH]2)cc1OC")
"> 50 µM"

Next compound, please.
Inquiry: # query: IC50 of entry COc1ccc(-c2nc3ccccc3c(=O)[nH]2)cc1OCC(=O)NC1CCCCC1
Reply text: > 50 µM

* * *

- EXPERIMENTAL_TARGET: Cytochrome P450 1A1 (Homo sapiens)
- ASSAY_METHOD_TEXT: Inhibition of recombinant human CYP1A1 expressed in baker's yeast-derived microsomes using 7-ethoxyresorufin as substrate by fluorescence assay
ENDPOINT_LABEL: IC50

Check out these entries, answers already filled in.
>>> result("O=C(COc1ccc(-c2nc3ccccc3c(=O)[nH]2)cc1)Nc1cccc(Cl)c1")
"> 5 µM"
>>> result("COc1ccc(-c2nc3ccccc3c(=O)[nH]2)cc1OCC(=O)NC1CCCCC1")
"> 5 µM"

Next molecule, please.
Inquiry: # query: IC50 of entry COc1ccccc1NC(=O)COc1ccc(-c2nc3ccccc3c(=O)[nH]2)cc1OC
Reply text: > 5 µM
